biological target: HLA-DR1 (DRA*01:01/DRB1*01:01) extracellular domain (human); test: fluorescence polarisation
I'd appreciate it if you could supply IC50 values for the items below.
A complete answer gives the number followed by the unit.

Give reported IC50 value for Ac-photoHA photocleavable peptide (Ac-PRYVKxNTLRLAT)
134 nM

Answer with the recorded IC50 of photoHAΔ1–2 photocleavable peptide (YVKxNTLRLAT) only.
1040 nM

Tell us which IC50 value is on record for Ac-photoHAΔ1–2 photocleavable peptide (Ac-YVKxNTLRLAT)
227 nM

Please supply the value of reported IC50 for the item photoHA photocleavable peptide (PRYVKxNTLRLAT)
92 nM

Provenance of the data: paper PMC6028098
